// IC50 lookup, one value per entry
# experimentalSystem: human recombinant Aminopeptidase N (Homo sapiens)
# Sequence (P15144 whole entry): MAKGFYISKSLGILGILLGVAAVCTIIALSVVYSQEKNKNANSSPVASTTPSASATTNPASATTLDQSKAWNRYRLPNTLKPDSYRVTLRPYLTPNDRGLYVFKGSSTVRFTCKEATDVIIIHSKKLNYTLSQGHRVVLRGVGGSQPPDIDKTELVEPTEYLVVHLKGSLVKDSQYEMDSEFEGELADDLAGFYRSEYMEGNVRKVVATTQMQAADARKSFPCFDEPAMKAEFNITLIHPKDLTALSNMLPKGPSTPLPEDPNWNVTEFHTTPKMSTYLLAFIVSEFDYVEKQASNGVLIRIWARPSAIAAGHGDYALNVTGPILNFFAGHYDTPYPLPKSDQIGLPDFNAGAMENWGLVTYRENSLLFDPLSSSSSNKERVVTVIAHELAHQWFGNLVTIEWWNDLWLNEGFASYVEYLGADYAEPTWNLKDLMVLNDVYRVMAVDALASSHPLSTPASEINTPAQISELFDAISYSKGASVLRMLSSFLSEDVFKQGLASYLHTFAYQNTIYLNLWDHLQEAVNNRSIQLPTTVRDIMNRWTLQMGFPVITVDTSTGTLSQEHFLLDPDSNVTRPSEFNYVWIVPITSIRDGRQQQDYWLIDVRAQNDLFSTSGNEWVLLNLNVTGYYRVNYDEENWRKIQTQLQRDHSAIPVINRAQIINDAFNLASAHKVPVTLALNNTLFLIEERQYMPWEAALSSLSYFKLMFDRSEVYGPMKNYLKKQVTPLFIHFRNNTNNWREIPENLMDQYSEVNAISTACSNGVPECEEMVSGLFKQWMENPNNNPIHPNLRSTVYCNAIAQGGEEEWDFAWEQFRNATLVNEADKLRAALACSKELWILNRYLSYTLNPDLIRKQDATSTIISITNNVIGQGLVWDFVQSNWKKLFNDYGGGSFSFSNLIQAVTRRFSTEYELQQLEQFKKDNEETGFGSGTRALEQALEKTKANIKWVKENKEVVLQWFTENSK
# protocolNotes: Measurement of APN activity (fluorogenic substrate (Ala)2-R110)
# Type: biochemical
# measurementConditions: human recombinant APN approx. 5 nM, substrate 0.5 μM, pH 7.5

Below: 5 molecules and their reported IC50.
INSERT INTO measurements (molecule, endpointlabel, reported) VALUES
  ('C[C@@H]1CN(C(=O)CC(O)C(N)Cc2ccccc2)C[C@H](C)N1C(=O)CC(N)Cc1ccccc1 (stereo partly shown) [drawing 19]', 'IC50', '22 µM'),
  ('NC(CC(=O)NCCCCNC(=O)C(O)C(N)Cc1ccc(C(=O)O)cc1)Cc1cc(F)ccc1F (stereo not shown) [drawing 45]', 'IC50', '> 50 µM'),
  ('NC(CC(=O)NCC1(CNC(=O)C(O)C(N)Cc2ccccc2)CCC1)Cc1ccccc1 (stereo not shown) [drawing 29]', 'IC50', '0.191 µM'),
  ('CCCCCCCC(=O)OC(C(=O)NCC(C)(C)CNC(=O)CC(N)Cc1cc(F)ccc1F)C(N)Cc1ccccc1 (stereo not shown) [drawing 41]', 'IC50', '0.2 µM'),
  ('NC(CC(=O)NC1CCCC(NC(=O)C(O)C(N)Cc2ccccc2)C1)Cc1cc(F)ccc1F (stereo not shown) [drawing 63]', 'IC50', '0.03 µM');

Q: Provide measured IC50 value, entry: CC(C)(CNC(=O)CC(N)Cc1cc(F)ccc1F)CNC(=O)C(O)C(N)Cc1ccc(-c2ccccc2)cc1 (stereo not shown) [drawing 75]
A: 0.346 µM

Q: Provide measured IC50 value, entry: CCCCCCCCCCCCCCCCOC(C(=O)NCC(C)(C)CNC(=O)CC(N)Cc1cc(F)ccc1F)C(N)Cc1ccccc1 (stereo not shown)
A: > 50 µM
